# Test system: Trichophyton mentagrophytes 445
# protocol_details: In vitro antifungal susceptibility testing (broth microdilution)
# Type: cell-based
# recorded_conditions: 72h, M38-A for moulds, IC50 value, read-out: MIC TM
endpoint: MIC (µM)
# value in µM; strip the unit string

GET /value?item= CC(C)[C@@H](NC(=O)c1cc(Cl)ccc1O)C(=O)Nc1ccc(Cl)cc1 [8j] &field=MIC returns 62.5

GET /value?item= C[C@@H](NC(=O)c1ccc(Cl)cc1O)C(=O)Nc1ccc(Cl)cc1 [9b] &field=MIC returns 250

GET /value?item= O=C(N[C@H](Cc1ccccc1)C(=O)Nc1ccc(Cl)cc1)c1cc(Cl)ccc1O [8l] &field=MIC returns 125

GET /value?item= O=C(N[C@@H](Cc1ccccc1)C(=O)Nc1cccc(Cl)c1)c1cc(Cl)ccc1O [8f] &field=MIC returns 125

GET /value?item= O=C(N[C@@H](Cc1ccccc1)C(=O)Nc1ccc(Cl)cc1)c1cc(Cl)ccc1O [8k] &field=MIC returns 125

GET /value?item= O=C(N[C@@H](Cc1ccccc1)C(=O)Nc1ccc(Cl)cc1)c1ccc(Cl)cc1O [9e] &field=MIC returns 125
